# System: SK-MEL-2 melanoma
# assay notes: NCI tumour cell line growth inhibition, 48 h
measured quantity: TGI

Q) Given COC(=O)CNC(=O)c1cc(C)cc2c1Oc1c(cc(C)cc1C(=O)NCC(=O)OC)S2 , state its recorded TGI.
A) > 100 µM

Q) Moving on to the next molecule: COc1cc(CC(C)C(C)Cc2ccc(O)c(OC)c2)ccc1O (stereo not given)
A) 25 µM

Q) Moving on to the next molecule: CCNC(=S)NNC(=O)c1nsc2ccccc12
A) > 100 µM

Q) Moving on to the next molecule: CC(C)=CCC[C@@H](C)C1=C(O)C(c2c(I)c(=O)n(C)c(=O)n2C)=C(C)C(=O)C1=O
A) > 100 µM

Q) Moving on to the next molecule: O=C1c2ccccc2-c2c1c1ccccc1c(=O)n2-c1cccnc1
A) > 100 µM

Q) Moving on to the next molecule: COc1ccc2c(c1OC)CN1CCc3cc4c(cc3C1C2)OCO4 (stereo not given)
A) > 100 µM

Q) Moving on to the next molecule: C=C(Br)CN(C)CC(=C)Br
A) > 100 µM

Q) Moving on to the next molecule: COC(=O)C1=C(C)NC(C)=C(C(=O)OC)C1c1ccc(NO)cc1
A) 34.2 µM

Q) Moving on to the next molecule: CC[C@]12C=CCN3CC[C@]4(C(=C(C(=O)OC)C1)Nc1cc(OC)c(OC(C)=O)cc14)[C@@H]32
A) 23 µM

Q) Moving on to the next molecule: O=C(c1ccccc1)N1C2C3CC(OCc4ccccc4)(OCc4ccccc4)C(O3)C21 (stereo not given)
A) > 100 µM

---

# Tested on: T-47D breast
# assay notes: NCI tumour cell line growth inhibition, 48 h
measured quantity: TGI

Q) What is its TGI for T-47D breast? Entry: CC(=O)OCC1CCC(=C2C(=O)OC(C)(C)OC2=O)N1 (stereo unspecified)
A) > 100 µM

Q) Moving on to the next molecule: Cc1ccccc1N=Nc1cc(C)c(N=Nc2c(O)ccc3ccccc23)cc1C
A) > 100 µM

Q) Moving on to the next molecule: COc1ccc2c(c1OC)CN1CCc3cc4c(cc3C1C2)OCO4 (stereo unspecified)
A) > 100 µM

Q) Moving on to the next molecule: COc1ccc(C2=C(c3cn(C)c4ccccc34)C(=O)NC2=O)cc1
A) > 25 µM

Q) Moving on to the next molecule: COc1cc2c(cc1OC)C(=O)/C(=C/c1ccccc1)CC2
A) > 100 µM

Q) Moving on to the next molecule: COc1cc2c(cc1O)N=C[C@@H]1C[C@@H](F)CN1C2=O
A) 32.2 µM

---

# System: U251 CNS
# assay notes: NCI tumour cell line growth inhibition, 48 h
Task for the reader: assign each of the following compounds its reported TGI.

Q) Given O=c1c2ccccc2nc(/C=C(\O)c2ccccc2)n1-c1ccccc1Cl , state its recorded TGI.
A) > 100 µM

Q) Moving on to the next compound: COc1ccc(-c2[nH]c(=O)n(C3OC(CO)C(O)C(O)C3O)c(=O)c2C#N)cc1 (stereo unspecified)
A) > 100 µM

Q) Moving on to the next compound: COc1ccc2c(c1OC)CN1CCc3cc4c(cc3C1C2)OCO4 (stereo unspecified)
A) > 100 µM

Q) Moving on to the next compound: Cc1cccc(NC(=O)c2sc3nc4c(cc3c2N)CCCC4)c1
A) 45.2 µM

Q) Moving on to the next compound: Cc1nc(-c2nc(C)c(C(=O)/C=C/c3ccc(N(C)C)cc3)s2)sc1C(=O)/C=C/c1ccc(N(C)C)cc1
A) > 100 µM

Q) Moving on to the next compound: CCOC(=O)c1cc(NC(=O)c2cc(NC(=O)c3cc(NC(=O)c4c(-c5ccccc5)noc4C)cn3C)cn2C)cn1C
A) > 100 µM

Q) Moving on to the next compound: COC(=O)C1=C(C)NC(C)=C(C(=O)OC)C1c1ccc(NO)cc1
A) 29.9 µM

Q) Moving on to the next compound: COc1cc(/C=C2\CC3C4CCC5=CC(=O)CC[C@]5(C)C4CC[C@]3(C)C2=O)ccc1OCCCn1ccnc1 (stereo partly specified)
A) 21.2 µM

Q) Moving on to the next compound: O=C(CC(=O)Nc1ccccc1Cl)NNC(c1cc(N=Nc2ccc(Br)cc2)ccc1O)P(O)O (stereo unspecified)
A) > 10 µM

Q) Moving on to the next compound: Cn1cc(C2=C(Sc3ccccc3)C(=O)NC2=O)c2ccccc21
A) > 25 µM

Q) Moving on to the next compound: N#CCCC1(CCC#N)CCc2ccccc2C1=O
A) > 100 µM

Q) Moving on to the next compound: Cc1ccc(O)c(N=Nc2c(O)cc(S(=O)(=O)O)c3ccccc23)c1
A) > 100 µM

Q) Moving on to the next compound: COc1cccc2c1C(=O)c1c(O)c3c(c(O)c1C2=O)CC(O)(C(O)CO)CC3OC1CC2C(OC3COCC(C#N)N32)C(C)O1 (stereo unspecified)
A) 0.13 µM

Q) Moving on to the next compound: COC(=O)CNC(=O)c1cc(C)cc2c1Oc1c(cc(C)cc1C(=O)NCC(=O)OC)S2
A) > 100 µM

Q) Moving on to the next compound: CN(O)C(=O)c1ccccc1
A) > 100 µM

Q) Moving on to the next compound: C[C@]12CCc3nonc3C1CC[C@@H]1C2CC[C@]2(C)C(=O)CCC12 (stereo partly specified)
A) > 100 µM

Q) Moving on to the next compound: COc1ccc(/C=C/C(=O)C(C)C)cc1
A) > 100 µM

Q) Moving on to the next compound: O=C1C=Cc2cscc21
A) > 100 µM

Q) Moving on to the next compound: O=C(O)c1ccccc1C1CCCc2c1[nH]c1ccccc21 (stereo unspecified)
A) > 100 µM

Q) Moving on to the next compound: O=S(=O)(O)c1ccc(N=Nc2ccc(N=Nc3c(O)ccc4cc(S(=O)(=O)O)ccc34)cc2)cc1
A) > 100 µM

Q) Moving on to the next compound: O=C1NC(=NCCc2cccs2)S/C1=C\c1ccc2ncccc2c1
A) > 25 µM

Entry source: PubChem BioAssay (NCI)
